target: Hu‐CIP2A (1‐560) (Homo sapiens); construct: recombinant purified N-terminal armadillo repeat domain, residues 1-560 of 905; assay: isothermal titration calorimetry, one-site model; details: read-out: dissociation constant
reported_endpoint: Kd (µM)
Note: unit µM is implicit; provide only the numeric part.

Hello, please tell me recorded Kd for this one: OC1(c2ccc(Cl)c(C(F)(F)F)c2)CCN(CCCC(c2ccc(F)cc2)c2ccc(F)cc2)CC1 7.42
